test system: BT-549 breast; assay: NCI-60 one-dose screen, 48 h; settings: 10 µM unless noted
Compounds without any hit were thinned out: in the full panel of roughly 83,000, 20% have a hit. Activity calls are given as the source filed them. Rule for the calls: active = growth percent below 10; inactive = the rest.
Valid outcomes are listed here; reply with one: t (active), f (inactive)

Task: Any idea what this test logged for C[n+]1ccc(CCc2c[nH]c3ccccc23)cc1 ?
Output: f

----------
tested on: SK-OV-3 ovarian; experiment: NCI-60 one-dose screen, 48 h (100 = growth as untreated, 0 = no growth, -100 = all killed); conditions: 10 µM unless noted
The panel holds about 83,000 compounds, 20% with a hit somewhere; the sample as a whole holds those more often.
PROPERTY_NAME: growth (%)
Kindly provide the numeric value in % only, without the unit symbol.

Given item COc1ccc(CCN2C(=O)/C(=C/c3ccc(C4Oc5ccccc5C5CC(c6ccccc6)=NN54)cc3)SC2=S)cc1 (centres undefined) , the value recorded as its growth is 103

compound CCN1C(=O)N(CC)C2C1NN=c1s/c(=C\c3ccc(C(F)(F)F)cc3)c(=O)n12 (centres undefined) , growth observed: 36.5

Record O=C(Cn1nnc2ccccc21)N/N=C/c1c[nH]c2ccccc12 . Reported growth: 65.7

// growth lookup, compound = NS(=O)(=O)c1ccc(NC(=O)/C(=C\c2ccc(Cl)cc2Cl)NC(=O)c2ccccc2)cc1 , result: 96.3

// growth value for CN1CCN(CCOc2ccc(-c3cnc4c(-c5cccc(F)c5F)cnn4c3)cc2)CC1 : 108

Others:
Please fill in: growth reported for O=C1/C(=C/c2ccccc2F)CN(C(=O)C(Cl)Cl)C/C1=C\c1ccccc1F = 32.4

Short answer for Cc1ccc(N2C(=O)CCC2=O)cc1 : growth was 99.7

Sample Nc1nc(NC(=O)Nc2ccc(C(=O)O)cc2)nn1-c1ccc(S(N)(=O)=O)cc1 ; growth observed: 107

Lab book: growth of CCN1CCN(CCNc2nccc(-c3c(-c4ccc(F)c(OC)c4)nc4sccn34)n2)S1(=O)=O noted as 87.5

Per the records, this compound ( C/C(=N\O)c1ccc(NC(=O)CSc2nnc(-c3cc(-c4ccc(S(C)(=O)=O)cc4)nc4ccccc34)n2-c2ccccc2)cc1 ) has growth equal to 115

CC1(C)CC(=O)c2c(nn(-c3ccc(Br)cc3)c2-c2cn(-c3ccccc3)nc2-c2cccnc2)C1 yielded growth of 82.5

Record summary for O=C(Oc1ccc(CCl)cc1)c1ccccc1 : reported growth = -100

// field: growth; key: CC(C)(C)n1cc(-c2ccnc(NCCCNS(=O)(=O)c3ccc(C(F)(F)F)cc3)c2)c(-c2cccc(F)c2)n1 ; value = 94.2
